- Tested on: HeLa cells
- MEASUREMENT_NOTES: Cell toxicity assay, HeLa cells
- Assay type: cell-based, human
- SETTINGS: Homo sapiens, HeLa, 48 h, read-out: IC50 values, HeLa cells, 48 h, AlamarBlue
RESULT_TYPE: pIC50
Worth noting: pIC50 values are minus log10 of concentrations stated in mol/L.

CC(C)C[C@H](NC(=O)[C@H](Cc1ccccc1)NC(=O)c1cnccn1)B(O)O : 8.15

Next, consider the following molecule.
Ask | Need pIC50 of `CC(C)C[C@H](NC(=O)[C@H](CCc1ccccc1)NC(=O)CN1CCOCC1)C(=O)N[C@@H](Cc1ccccc1)C(=O)N[C@@H](CC(C)C)C(=O)[C@@]1(C)CO1` , thanks.
Reply | 7.23

FYI, the data here is from paper PMC6092455.
